- Assay Remarks: Permeability of compound incubated for 2 hrs by liquid chromatography analysis
- Type: ADME
- Test Parameters: read-out: permeability
Recorded Metric: Papp at 2 h (nm/s)
Numbers only, in nm/s.

smiles_entry=CC(C)(O)CNc1cc(Oc2ccc(NC(=O)Nc3cccc(C(F)(F)F)c3)cc2)ncn1 experimental_value=210
smiles_entry=CNC(=O)c1cc(Oc2ccc(NC(=O)Nc3ccc(Cl)c(C(F)(F)F)c3)cc2)ccn1 experimental_value=110

IN: // query Papp at 2 h value for entry CCc1cc(NC(=O)Nc2cccc(C(F)(F)F)c2)cc(Cl)c1Oc1cc(NC)ncn1
OUT: 59

---

- Assay Remarks: Half life in po dosed rat administered as cassette dose
- Format: ADME, organism-based
- Test Parameters: in vivo
Recorded Metric: half-life (h)
Numbers only, in h.

smiles_entry=CNc1cc(Oc2c(Cl)cc(NC(=O)Nc3cccc(C(F)(F)F)c3)cc2Cl)ncn1 unit_info=h experimental_value=5.4
smiles_entry=Nc1cc(Oc2ccc(NC(=O)Nc3cccc(C(F)(F)F)c3)cc2)ncn1 unit_info=h experimental_value=3.2
smiles_entry=CC(C)(O)CNc1cc(Oc2ccc(NC(=O)Nc3cccc(C(F)(F)F)c3)cc2)ncn1 unit_info=h experimental_value=3.7
smiles_entry=CNC(=O)c1cc(Oc2ccc(NC(=O)Nc3ccc(Cl)c(C(F)(F)F)c3)cc2)ccn1 unit_info=h experimental_value=6.8
smiles_entry=CNc1cc(Oc2c(C)cc(NC(=O)Nc3cccc(C(F)(F)F)c3)cc2C)ncn1 unit_info=h experimental_value=2.4

Report half-life for each item below.
1. CCc1cc(NC(=O)Nc2cccc(C(F)(F)F)c2)cc(Cl)c1Oc1cc(NC)ncn1
2. CNc1cc(Oc2ccc(NC(=O)Nc3cccc(C(F)(F)F)c3)cc2)ncn1

OUT:
[3.7, 3.2]

IN: half-life for O=C(Nc1ccc(Oc2cc(NCCO)ncn2)cc1)Nc1cccc(C(F)(F)F)c1 ?
OUT: 4.5

---

- Subject Of Test: Serine/threonine-protein kinase TNNI3K (Mus musculus, UniProt Q5GIG6)
- Sequence (Q5GIG6 whole entry): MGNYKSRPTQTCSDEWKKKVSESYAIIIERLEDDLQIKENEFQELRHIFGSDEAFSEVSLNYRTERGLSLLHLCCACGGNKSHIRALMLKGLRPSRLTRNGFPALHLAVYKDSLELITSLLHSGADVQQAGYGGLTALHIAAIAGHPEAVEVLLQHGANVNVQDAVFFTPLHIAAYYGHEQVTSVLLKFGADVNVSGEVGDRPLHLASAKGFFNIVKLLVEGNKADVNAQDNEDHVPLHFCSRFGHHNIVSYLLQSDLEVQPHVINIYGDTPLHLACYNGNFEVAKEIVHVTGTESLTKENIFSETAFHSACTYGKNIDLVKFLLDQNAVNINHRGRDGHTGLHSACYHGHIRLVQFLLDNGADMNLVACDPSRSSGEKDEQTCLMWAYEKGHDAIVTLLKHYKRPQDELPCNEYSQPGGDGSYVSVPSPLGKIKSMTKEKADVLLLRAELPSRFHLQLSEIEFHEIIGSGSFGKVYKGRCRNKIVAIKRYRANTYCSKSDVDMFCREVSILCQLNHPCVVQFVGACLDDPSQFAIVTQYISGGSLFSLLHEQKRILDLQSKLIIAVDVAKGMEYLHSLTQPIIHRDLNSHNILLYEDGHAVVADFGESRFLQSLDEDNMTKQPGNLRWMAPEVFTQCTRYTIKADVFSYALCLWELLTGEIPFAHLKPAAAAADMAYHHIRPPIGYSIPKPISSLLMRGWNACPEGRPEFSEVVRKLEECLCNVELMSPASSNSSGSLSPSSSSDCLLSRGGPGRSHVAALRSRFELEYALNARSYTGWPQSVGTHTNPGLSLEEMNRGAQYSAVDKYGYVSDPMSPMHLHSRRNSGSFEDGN
- Assay Remarks: Binding affinity to full length mouse His-MBP-TNNI3K assessed as off-rate constant in presence of rhodamine green labeled GW805818X by fluorescence competitive binding assay
Recorded Metric: Ki

IN: Kindly state the measured Ki obtained for CNc1cc(Oc2c(Cl)cc(NC(=O)Nc3cccc(C(F)(F)F)c3)cc2Cl)ncn1 with Serine/threonine-protein kinase TNNI3K (Mus musculus, UniProt Q5GIG6).
OUT: 13 nM

---

- Subject Of Test: Serine/threonine-protein kinase TNNI3K (Homo sapiens, UniProt Q59H18)
- Sequence (Q59H18 whole entry): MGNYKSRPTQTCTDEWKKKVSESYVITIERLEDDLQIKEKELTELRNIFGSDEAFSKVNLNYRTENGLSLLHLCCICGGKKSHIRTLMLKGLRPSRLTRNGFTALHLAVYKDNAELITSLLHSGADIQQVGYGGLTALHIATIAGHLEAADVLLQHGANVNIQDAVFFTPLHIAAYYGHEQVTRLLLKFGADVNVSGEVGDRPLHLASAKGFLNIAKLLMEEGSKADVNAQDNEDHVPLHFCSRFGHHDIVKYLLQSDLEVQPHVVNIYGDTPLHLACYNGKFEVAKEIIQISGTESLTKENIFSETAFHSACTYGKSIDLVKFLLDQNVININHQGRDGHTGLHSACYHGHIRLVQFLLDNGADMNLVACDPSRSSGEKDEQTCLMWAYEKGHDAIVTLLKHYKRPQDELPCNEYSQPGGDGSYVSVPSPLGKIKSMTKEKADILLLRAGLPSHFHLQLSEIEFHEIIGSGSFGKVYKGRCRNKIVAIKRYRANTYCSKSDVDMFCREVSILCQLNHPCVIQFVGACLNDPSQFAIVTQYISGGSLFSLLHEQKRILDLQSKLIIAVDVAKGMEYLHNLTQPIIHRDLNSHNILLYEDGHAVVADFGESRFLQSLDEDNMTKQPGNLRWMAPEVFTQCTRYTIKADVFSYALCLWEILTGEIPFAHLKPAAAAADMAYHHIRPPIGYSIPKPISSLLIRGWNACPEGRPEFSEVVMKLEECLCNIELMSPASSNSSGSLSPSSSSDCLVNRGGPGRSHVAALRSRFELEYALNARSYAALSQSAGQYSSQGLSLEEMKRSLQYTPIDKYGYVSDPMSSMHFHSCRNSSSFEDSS
- Assay Remarks: Inhibition of TNNI3K (unknown origin)
Recorded Metric: IC50

These solved cases illustrate the format of a correct answer.
smiles_entry=CNc1cc(Oc2c(C)cc(NC(=O)Nc3cccc(C(F)(F)F)c3)c3ccccc23)ncn1 experimental_value="32 nM"
smiles_entry=Cc1cc(Oc2ccc(NC(=O)Nc3cccc(C(F)(F)F)c3)cc2)ncn1 experimental_value="160 nM"
smiles_entry=CC(C)Nc1cc(Oc2ccc(NC(=O)Nc3cccc(C(F)(F)F)c3)cc2)ncn1 experimental_value="40 nM"
smiles_entry=CC(=O)Nc1cc(Oc2ccc(NC(=O)Nc3cccc(C(F)(F)F)c3)cc2)ncn1 experimental_value="20 nM"

For every item in the list below, what is its measured IC50?
1. CCNc1cc(Oc2ccc(NC(=O)Nc3cccc(C(F)(F)F)c3)cc2)ncn1
2. CNc1cc(Oc2ccc(NC(=O)Nc3cccc(C(F)F)c3)cc2)ncn1
3. CNc1cc(Oc2ccc(NC(=O)Nc3cccc(C(F)(F)F)c3)cc2C)ncn1
4. CNc1cc(Oc2ccc(NC(=O)Nc3ccccc3)cc2)ncn1
5. COc1ccc2ncnc(Oc3ccc(NC(=O)Nc4cccc(C(F)(F)F)c4)cc3)c2c1
6. C[C@@H](O)CNc1cc(Oc2ccc(NC(=O)Nc3cccc(C(F)(F)F)c3)cc2)ncn1
7. CC(C)(O)CNc1cc(Oc2ccc(NC(=O)Nc3cccc(C(F)(F)F)c3)cc2)ncn1

OUT:
25 nM
100 nM
≤ 10 nM
6300 nM
100 nM
63 nM
40 nM

Parameter requested: IC50. Apply to each item below.
1. CNc1cc(Oc2ccc(NC(=O)Nc3cccc(CF)c3)cc2)ncn1
2. C[C@H](O)CNc1cc(Oc2ccc(NC(=O)Nc3cccc(C(F)(F)F)c3)cc2)ncn1
3. CNc1nccc(Oc2ccc(NC(=O)Nc3cccc(C(F)(F)F)c3)cc2)n1
4. CCS(=O)(=O)c1ccc(S(=O)(=O)NC)cc1Nc1cc(Nc2ccc(Cl)cn2)ncn1
5. CNc1cc(Oc2ccc(NC(=O)Nc3cccc(C(F)(F)F)c3)c(F)c2)ncn1
6. CNc1cc(Oc2cc(C)c(NC(=O)Nc3cccc(C(F)(F)F)c3)cc2C)ncn1
7. CNc1cc(Oc2ccc(NC(=O)Nc3cccc(C(F)(F)F)c3)cc2Cl)ncn1
8. COc1cc(Oc2ccc(NC(=O)Nc3cccc(C(F)(F)F)c3)cc2)ncn1

OUT:
1: 400 nM; 2: 32 nM; 3: 50 nM; 4: ≤ 10 nM; 5: 63 nM; 6: 32 nM; 7: 50 nM; 8: 4000 nM

IN: Please report the recorded IC50 for CNc1cc(Oc2ccc(NC(=O)Nc3cccc(C(C)(F)F)c3)cc2)ncn1 .
OUT: 40 nM

---

- Organism: Homo sapiens
- Assay Remarks: Selectivity index, ratio of IC50 for inhibition of p38alpha (unknown origin) to IC50 for inhibition of TNNI3K (unknown origin)
Recorded Metric: Ratio IC50
One number for each entry.

Worked examples, 2 molecules total:
smiles_entry=CNc1cc(Oc2ccc(NC(=O)Nc3cccc(C(C)(C)C)c3)cc2)ncn1 recorded_metric="Ratio IC50" experimental_value=25
smiles_entry=CNc1cc(Oc2ccc(NC(=O)Nc3cccc(C(F)(F)F)c3)cc2F)ncn1 recorded_metric="Ratio IC50" experimental_value=40

Now turn to the next molecule.
IN: Looking for the measured Ratio IC50 of O=C(Nc1ccc(Oc2ncnc3[nH]ccc23)cc1)Nc1cccc(C(F)(F)F)c1 , can you help?
OUT: 31

---

- Species: Homo sapiens
- Assay Remarks: Selectivity index, ratio of IC50 for inhibition of VEGFR2 (unknown origin) to IC50 for inhibition of TNNI3K (unknown origin)
Recorded Metric: Ratio IC50

smiles_entry=C[C@@H](O)CNc1cc(Oc2ccc(NC(=O)Nc3cccc(C(F)(F)F)c3)cc2)ncn1 experimental_value=3.2
smiles_entry=O=C(Nc1ccc(Oc2ncnc3[nH]ccc23)cc1)Nc1cccc(C(F)(F)F)c1 experimental_value=0.16
smiles_entry=CNc1cc(Oc2c(F)cc(NC(=O)Nc3cccc(C(F)(F)F)c3)cc2F)ncn1 experimental_value=2.5

Dear colleague, could you send me Ratio IC50 for each of the items below? Thanks.
1. CNc1cc(Oc2ccc(NC(=O)Nc3cccc(CF)c3)cc2)ncn1
2. COc1cc2ncnc(Oc3ccc(NC(=O)Nc4cccc(C(F)(F)F)c4)cc3)c2cc1OC
3. CNc1cc(Oc2ccc(NC(=O)Nc3cccc(C(C)(C)C)c3)cc2)ncn1
4. CNc1cc(Oc2ccc(NC(=O)Nc3cccc(C(F)(F)F)c3)cc2)ncn1
5. Cc1cc(Oc2ccc(NC(=O)Nc3cccc(C(F)(F)F)c3)cc2)ncn1

OUT:
1: 1; 2: 0.08; 3: 0.63; 4: 0.63; 5: 0.4

Count: 2. Required value per item: Ratio IC50.
1. O=C(O)Cc1cccc(Nc2cc(Oc3ccc(NC(=O)Nc4cccc(C(F)(F)F)c4)cc3)ncn2)c1
2. O=C(Nc1ccc(Oc2ccncc2)cc1)Nc1cccc(C(F)(F)F)c1

OUT:
0.04
0.4

---

- Species on record: Homo sapiens
- Assay Remarks: Selectivity index, ratio of IC50 for inhibition of p38alpha (unknown origin) to IC50 for inhibition of TNNI3K (unknown origin)
The label Met is reserved for Ratio IC50 strictly under 6; Not met covers values equal to or above it.

Solved cases below.
smiles_entry=CNc1cc(Oc2c(F)cc(NC(=O)Nc3cccc(C(F)(F)F)c3)cc2F)ncn1 assigned_label="Not met"
smiles_entry=O=C(O)Cc1cccc(Nc2cc(Oc3ccc(NC(=O)Nc4cccc(C(F)(F)F)c4)cc3)ncn2)c1 assigned_label="Not met"
smiles_entry=CNc1cc(Oc2c(C)cc(NC(=O)Nc3cccc(C(F)(F)F)c3)cc2C)ncn1 assigned_label="Not met"
smiles_entry=CNc1cc(Oc2ccc(NC(=O)Nc3cccc(C)c3)cc2)ncn1 assigned_label="Not met"
smiles_entry=CN(C)c1cc(Oc2ccc(NC(=O)Nc3cccc(C(F)(F)F)c3)cc2)ncn1 assigned_label=Met

IN: Say whether its Ratio IC50 is strictly beneath 6. Entry: CNc1cc(Oc2ccc(NC(=O)Nc3cccc(C(F)(F)F)c3)c(F)c2F)ncn1
OUT: Not met

IN: Given the entry CNc1cc(Oc2c(C)cc(NC(=O)Nc3cccc(C(F)(F)F)c3)cc2Cl)ncn1 , would its reported Ratio IC50 be below 6?
OUT: Not met

IN: Identify whether the compound CNc1cc(Oc2ccc(NC(=O)Nc3cccc(C(F)(F)F)c3)c3ccccc23)ncn1 records Ratio IC50 below 6.
OUT: Met

IN: Report whether reported Ratio IC50 is lower than 6 (strictly) for Cc1cc(Oc2ccc(NC(=O)Nc3cccc(C(F)(F)F)c3)cc2)ncn1
OUT: Not met

IN: hey, is Ratio IC50 for CNc1cc(Oc2ccc(NC(=O)Nc3cccc(C(F)(F)F)c3)c(F)c2)ncn1 lower than 6 or not?
OUT: Not met
